experiment: in vivo; conditions: rat, po
Observation Type: LD50 (mg/kg)
Give your result in mg/kg as a bare value.

Sample records with LD50:
compound `CCN(CC)S(=O)(=O)CCNC(=O)N(CCCl)N=O` , LD50 observed: 60

compound `O=NN(CCCl)C(=O)NCCS(=O)(=O)NCc1ccccc1` , LD50 observed: 250

compound `CN(C)S(=O)(=O)CCCCNC(=O)N(CCCl)N=O` , LD50 observed: 250

compound `NS(=O)(=O)CCNC(=O)N(CCCl)N=O` , LD50 observed: 40

***
compound `CN(C)S(=O)(=O)CCCCCNC(=O)N(CCCl)N=O` , LD50 observed: 250

---

test: in vivo; details: rat, po
Observation Type: LD50
Give me the value, and tack the unit on after it.

compound `O=NN(CCCl)C(=O)NCCS(=O)(=O)NCCO` , LD50 observed: 90 mg/kg

compound O=NN(CCCl)C(=O)NC1CCCCC1 [CCNU, reference compound] , LD50 observed: 90 mg/kg

Field: next compound
compound `CN(CCO)S(=O)(=O)CCNC(=O)N(CCCl)N=O` , LD50 observed: 90 mg/kg

---

system: Lymphatic leukemia L1210; test: Lymphatic leukemia L1210 survival test (survival time increase, long term survival, cure potential); assay type: in vivo, Female BDF1 mice; conditions: ≥90% long term survivors on day 60; p.o. once
Observation Type: Dose or dose range for cure

compound `CN(C1CCCCC1)S(=O)(=O)CCNC(=O)N(CCCl)N=O` , Dose or dose range for cure observed: 125 mg/kg

compound `COCCNS(=O)(=O)CCNC(=O)N(CCCl)N=O` , Dose or dose range for cure observed: 31 to 63 mg/kg

compound `CNS(=O)(=O)CCNC(=O)N(CCCl)N=O` , Dose or dose range for cure observed: 31 mg/kg

compound `CN(C)S(=O)(=O)CCCNC(=O)N(CCCl)N=O` , Dose or dose range for cure observed: 31 to 63 mg/kg

compound `CON(C)S(=O)(=O)CCNC(=O)N(CCCl)N=O` , Dose or dose range for cure observed: 63 to 125 mg/kg

Field: next compound
compound O=NN(CCCl)C(=O)NCCCl [BCNU, 1,2-bis-(2-chloroethyl)-nitrosourea, reference compound] , Dose or dose range for cure observed: none
